The reported numbers originate from paper PMC5802374.

# assay target: UniProt:P41145
# measurement description: cell-based
measurement label: pEC50
# pEC50 is unitless: minus log10 of the molar concentration; print number only

State the recorded pEC50 for this entry: C=CCN1CC[C@]23c4c5ccc(O)c4OC2[C@H](NC(=O)c2ccc(F)c(I)c2)CC[C@@]3(O)C1C5 (stereo partly shown)
10.13

---

# assay target: MOP (Homo sapiens, UniProt P35372)
# Sequence (P35372 whole entry): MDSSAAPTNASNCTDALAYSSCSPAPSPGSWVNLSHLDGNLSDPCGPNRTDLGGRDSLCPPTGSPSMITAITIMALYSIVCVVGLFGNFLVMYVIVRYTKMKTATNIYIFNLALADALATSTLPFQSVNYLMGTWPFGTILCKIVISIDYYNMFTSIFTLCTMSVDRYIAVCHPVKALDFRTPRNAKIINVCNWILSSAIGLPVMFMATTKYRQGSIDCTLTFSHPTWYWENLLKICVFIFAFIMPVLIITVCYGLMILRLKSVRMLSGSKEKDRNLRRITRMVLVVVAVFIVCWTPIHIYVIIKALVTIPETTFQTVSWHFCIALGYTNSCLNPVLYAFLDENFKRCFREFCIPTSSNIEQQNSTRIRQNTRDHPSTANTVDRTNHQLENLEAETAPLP
# measurement description: cAMP inhibition assay
# Type: cell-based
# experimental setup: read-out: EC50 Gi activation (cAMP inhibition) in MOP; N = 3
measurement label: EC50 (nM)
Your answer should be a plain number; it is taken to be in nM.

State the recorded EC50 for this entry: O=C(N[C@@H]1CC[C@@]2(O)[C@H]3Cc4ccc(O)c5c4[C@@]2(CCN3CC2CC2)[C@H]1O5)c1cccc(I)c1 [IBNtxA]
0.056

---

# assay target: KOP wt (Homo sapiens)
# Sequence (P41145 whole entry): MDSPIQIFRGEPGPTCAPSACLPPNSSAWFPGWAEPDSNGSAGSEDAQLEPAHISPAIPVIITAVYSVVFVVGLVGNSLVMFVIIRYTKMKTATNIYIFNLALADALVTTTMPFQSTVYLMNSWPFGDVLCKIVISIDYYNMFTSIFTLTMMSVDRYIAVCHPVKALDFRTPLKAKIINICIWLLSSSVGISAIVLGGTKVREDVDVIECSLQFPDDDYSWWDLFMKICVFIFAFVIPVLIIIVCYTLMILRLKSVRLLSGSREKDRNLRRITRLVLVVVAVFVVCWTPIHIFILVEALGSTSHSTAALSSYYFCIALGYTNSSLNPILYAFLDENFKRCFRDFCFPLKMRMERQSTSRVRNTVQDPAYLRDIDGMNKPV
# experimental setup: read-out: EC50 arrestin recruitment (Tango) in KOP wt; N = 3
measurement label: EC50
Your answer should be a number followed by the unit of measure.

State the recorded EC50 for this entry: "O=C(N[C@@H]1CC[C@@]2(O)[C@H]3Cc4ccc(O)c5c4[C@@]2(CCN3CC2CC2)[C@H]1O5)c1cccc(I)c1"
0.032 nM
